tested on: isolated rat liver mitochondria; test: Oxygen consumption, Clark-type oxygen electrode; format: biochemical; conditions: 0.8 µM
measurement_label: I-sub, % of control (O2 consumption rate)

isolated rat liver mitochondria / I-sub, % of control (O2 consumption rate) / O=C(Nc1ccc([N+](=O)[O-])cc1Cl)c1cc(Cl)ccc1O [Niclosamide, reference compound] : value?
308 (29.6) % of control

isolated rat liver mitochondria / I-sub, % of control (O2 consumption rate) / O=C(Nc1ccccc1)Nc1cnns1 : value?
95 (12.4) % of control

isolated rat liver mitochondria / I-sub, % of control (O2 consumption rate) / C=C(C)[C@H]1Cc2c(ccc3c2O[C@@H]2COc4cc(OC)c(OC)cc4[C@@H]2C3=O)O1 [Rotenone, reference compound] : value?
64 (8.9) % of control

Where do the numbers come from? From paper PMC6112376.
